system: formalin-induced mouse paw edema; test: Antiinflammatory activity assay, mouse paw edema test (formalin); assay type: in vivo, male ddy mice; conditions: Hour 1; 200 mg orally, 1 hour before 0.05 ml of 0.75% formalin into right hind paw
Entries and their % Inhibition
Unit % implied. Number only.

Please report the recorded % Inhibition for "CCCCCCCCCCCCCCCCCCOC(=O)[C@@]1(C)CC[C@]2(C)CC[C@]3(C)C(=CC(=O)[C@@H]4[C@@]5(C)CC[C@H](OP(=O)(O)OC6=C(O)[C@@H]([C@@H](O)CO)OC6=O)C(C)(C)[C@@H]5CC[C@]43C)[C@@H]2C1" .
31.02

Same question for "CCOC(=O)[C@@]1(C)CC[C@]2(C)CC[C@]3(C)C(=CC(=O)[C@@H]4[C@@]5(C)CC[C@H](OP(=O)(O)OC6=C(O)[C@@H]([C@@H](O)CO)OC6=O)C(C)(C)[C@@H]5CC[C@]43C)[C@@H]2C1" please.
18.84

Try the molecule "CCCCCCCCCCCCOC(=O)[C@@]1(C)CC[C@]2(C)CC[C@]3(C)C(=CC(=O)[C@@H]4[C@@]5(C)CC[C@H](OP(=O)(O)OC6=C(O)[C@@H]([C@@H](O)CO)OC6=O)C(C)(C)[C@@H]5CC[C@]43C)[C@@H]2C1"
49.03
